// provenance: patent US20260007758A1

# MEASURED_ON: SST2 (Homo sapiens)
# Construct: host or cells: PathHunter CHO-K1 SST2 cells
# Sequence (P30874 whole entry): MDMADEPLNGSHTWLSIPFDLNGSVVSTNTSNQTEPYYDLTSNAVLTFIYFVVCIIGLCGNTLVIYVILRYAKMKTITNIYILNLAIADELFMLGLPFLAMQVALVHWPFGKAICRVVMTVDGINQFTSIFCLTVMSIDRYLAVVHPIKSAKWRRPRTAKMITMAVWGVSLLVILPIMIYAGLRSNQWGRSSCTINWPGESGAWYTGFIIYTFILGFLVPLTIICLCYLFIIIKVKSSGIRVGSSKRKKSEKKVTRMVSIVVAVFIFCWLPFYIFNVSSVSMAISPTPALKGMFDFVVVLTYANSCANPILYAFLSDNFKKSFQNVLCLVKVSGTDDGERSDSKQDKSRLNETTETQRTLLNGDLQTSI
# METHOD_DESCRIPTION: PathHunter CHO-K1 SST2 Internalization Assay
# Format: cell-based
# CONDITION_SET: PathHunter CHO-K1 SST2 cells; 90 min at 37 C; luminescence; read-out: Internalization EC50
Assignment: determine reported EC50 for the given compounds.

Field: example entries. Status: answers known.
SMILES_INPUT: CC[C@H](C)[C@@H]([C@@H](CC(=O)N1CCC[C@H]1[C@H](OC)[C@@H](C)C(=O)N[C@H](C)[C@@H](O)c1ccccc1)OC)N(C)C(=O)[C@@H](NC(=O)[C@H](C(C)C)N(C)C(=O)OCc1ccc(NC(=O)[C@H](CCCNC(N)=O)NC(=O)[C@@H](NC(=O)CCOCCC(=O)NCCNc2ncc(-c3cc(C)cc(F)c3)c(N3CCC(N)CC3)c2-c2nc3ccc(Cl)cc3[nH]2)C(C)C)cc1C(=O)N[C@@H](CCCNC(=O)CCCCc1ccc(I)cc1)C(=O)O)C(C)C
EC50: 1.4 nM
--
SMILES_INPUT: CC[C@H](C)[C@@H]([C@@H](CC(=O)N1CCC[C@H]1[C@H](OC)[C@@H](C)C(=O)N[C@H](C)[C@@H](O)c1ccccc1)OC)N(C)C(=O)[C@@H](NC(=O)[C@H](C(C)C)N(C)C(=O)OCc1ccc(NC(=O)[C@H](CCCNC(N)=O)NC(=O)[C@@H](NC(=O)[C@H](CCc2nnn[nH]2)NC(=O)CCOCCC(=O)NCCNc2ncc(-c3cc(C)cc(F)c3)c(N3CCC(N)CC3)c2-c2nc3ccc(Cl)cc3[nH]2)C(C)C)cc1)C(C)C
EC50: 3.7 nM
--
SMILES_INPUT: CC[C@H](C)[C@@H]([C@@H](CC(=O)N1CCC[C@H]1[C@H](OC)[C@@H](C)C(=O)N[C@H](C)[C@@H](O)c1ccccc1)OC)N(C)C(=O)[C@@H](NC(=O)[C@H](C(C)C)N(C)C(=O)OCc1ccc(NC(=O)[C@H](CCCNC(N)=O)NC(=O)[C@@H](NC(=O)CCOCCC(=O)N(C)CC(=O)NCCNc2ncc(-c3cc(C)cc(F)c3)c(N3CCC(N)CC3)c2-c2nc3ccc(Cl)cc3[nH]2)C(C)C)c(O[C@@H]2O[C@H](C(=O)NCCO)[C@@H](O)[C@H](O)[C@H]2O)c1)C(C)C
EC50: 5.9 nM

(Q) Entry CC[C@H](C)[C@@H]([C@@H](CC(=O)N1CCC[C@H]1[C@H](OC)[C@@H](C)C(=O)N[C@H](C)[C@@H](O)c1ccccc1)OC)N(C)C(=O)[C@@H](NC(=O)[C@H](C(C)C)N(C)C(=O)OCc1ccc(NC(=O)[C@H](CCCNC(N)=O)NC(=O)[C@@H](NC(=O)C2(C(=O)NCCOCCC(=O)NCCNc3ncc(-c4cc(C)cc(F)c4)c(N4CCC(N)CC4)c3-c3nc4ccc(Cl)cc4[nH]3)CCC2)C(C)C)cc1C(=O)NCCN)C(C)C : reported EC50 = ?
(A) 10 nM

---

# MEASURED_ON: human somatostatin receptor subtype 2 (Homo sapiens)
# Construct: expressed in transfected cells
# METHOD_DESCRIPTION: Functional assay for SSTR2 agonists (HTRF cAMP)
# Format: cell-based
# CONDITION_SET: CHO-K1 cells stably expressing human SST2; NKH477-stimulated cAMP; 20 min at 37 C; read-out: hSST2 cAMP Avg EC50
Would you mind telling me the reported pEC50 of each entry?
One number for each entry, as −log10 of the molar value.

SMILES_INPUT: CC[C@H](C)[C@@H]([C@@H](CC(=O)N1CCC[C@H]1[C@H](OC)[C@@H](C)C(=O)N[C@H](C)[C@@H](O)c1ccccc1)OC)N(C)C(=O)[C@@H](NC(=O)[C@H](C(C)C)N(C)C(=O)OCc1ccc(NC(=O)[C@H](CCCNC(N)=O)NC(=O)[C@@H](NC(=O)CCOCCOCCC(=O)NCCNc2ncc(-c3cc(C)cc(F)c3)c(N3CCC(N)CC3)c2-c2nc3ccc(Cl)cc3[nH]2)C(C)C)cc1C(=O)NCCNC(=O)CCCCCCCCCCC(=O)O)C(C)C
MEASURED_ON: human somatostatin receptor subtype 2 (Homo sapiens)
pEC50: 9.28

Provide pEC50 for all items below, preserving their order.
1. CC[C@H](C)[C@@H]([C@@H](CC(=O)N1CCC[C@H]1[C@H](OC)[C@@H](C)C(=O)N[C@H](C)[C@@H](O)c1ccccc1)OC)N(C)C(=O)[C@@H](NC(=O)[C@H](C(C)C)N(C)C(=O)OCc1ccc(NC(=O)[C@H](CCCNC(N)=O)NC(=O)[C@@H](NC(=O)CCOCCC(=O)NCCNc2ncc(-c3cc(C)cc(F)c3)c(N3CCC(N)CC3)c2-c2nc3ccc(Cl)cc3[nH]2)C(C)C)cc1C(=O)NOCCN)C(C)C
2. CC[C@H](C)[C@@H]([C@@H](CC(=O)N1CCC[C@H]1[C@H](OC)[C@@H](C)C(=O)N[C@H](C)[C@@H](O)c1ccccc1)OC)N(C)C(=O)[C@@H](NC(=O)[C@H](C(C)C)N(C)C(=O)OCc1ccc(NC(=O)[C@H](CCCNC(N)=O)NC(=O)[C@@H](NC(=O)c2cc(NC(=O)C[C@@H](N)C(=O)NCCOCCC(=O)NCCNc3ncc(-c4cc(C)cc(F)c4)c(N4CCC(N)CC4)c3-c3nc4ccc(Cl)cc4[nH]3)cc(C(=O)NCC(=O)O)c2)C(C)C)cc1)C(C)C
3. CC[C@H](C)[C@@H]([C@@H](CC(=O)N1CCC[C@H]1[C@H](OC)[C@@H](C)C(=O)N[C@H](C)[C@@H](O)c1ccccc1)OC)N(C)C(=O)[C@@H](NC(=O)[C@H](C(C)C)N(C)C(=O)OCc1ccc(NC(=O)[C@H](C)NC(=O)[C@@H](NC(=O)CCOCCC(=O)NCCN(C)c2ncc(-c3cc(C)cc(F)c3)c(N3CCC(N)CC3)c2-c2nc3ccc(Cl)cc3[nH]2)C(C)C)c(O[C@@H]2O[C@H](C(=O)O)[C@@H](O)[C@H](O)[C@H]2O)c1)C(C)C

(A)
1: 9.60; 2: 9.55; 3: 9.23
